assay: Inhibition of [14C]arachidonic acid conversion to 5-HETE by broken cell 5-lipoxygenase in vitro (guinea pig PMN)
quantityKind: IC50 (µM)

Some compounds with recorded IC50:
# compound, IC50 [µM]
measured = [
    ("c1ccc2c(c1)Nc1ccccc1O2 [10H-Phenoxazine]", 0.02),
    ("O=C(O)c1ccc2c(c1)Nc1ccccc1O2 [10H-Phenoxazine-2-carboxylic acid]", 4.6),
]

[A] O=C(O)/C=C/c1ccc2c(c1)Nc1ccccc1O2 [(E)-3-(10H-Phenoxazin-2-yl)-acrylic acid]
[B] CCOC(=O)/C=C/c1ccc2c(c1)Nc1ccccc1O2
IN: Which value of IC50 is smaller, the one for A or the one for B ? // caller expects the label of the chosen entry
OUT: B
(B: 0.035 µM, A: 1.2 µM)
